# system.name: KRAS G12V protein in SW620 cells (Homo sapiens, UniProt P01116, G12V)
# Construct: endogenous in cells; host or cells: SW620
# Sequence (P01116 1-188 isoform P01116-2 G12V): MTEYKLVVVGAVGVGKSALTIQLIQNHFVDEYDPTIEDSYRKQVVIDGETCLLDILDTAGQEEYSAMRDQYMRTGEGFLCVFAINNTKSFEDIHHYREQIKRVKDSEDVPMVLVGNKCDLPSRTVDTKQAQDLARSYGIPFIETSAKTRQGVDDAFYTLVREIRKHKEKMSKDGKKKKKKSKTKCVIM
# measurement.notes: KRAS degradation assay (Western Blot) in SW620 cells
# Type: cell-based
# condition.details: SW-620, 24 h
Could you please report measured Dmax for the items listed next?
Expressed in %, but write only the number.

Which measured Dmax value corresponds to C#Cc1c(F)ccc2cc(O)cc(-c3ncc4c(N5CCC[C@@](C)(O)C5)nc(OC[C@H](C)CN5CCN(CC6CCC7(CC6)CCN(C(=O)c6ccc(CC)c(N8CCC(=O)NC8=O)c6)CC7)CC5)nc4c3F)c12 ?
98.9

Entry under review: C#Cc1c(F)ccc2cc(O)cc(-c3ncc4c(N5CCC[C@@](C)(O)C5)nc(OCC5(CN6CCN(CC7CCC8(CC7)CCN(C(=O)c7cc(N9CCC(=O)NC9=O)c(C)cc7F)CC8)CC6)CC5)nc4c3F)c12 . Reported Dmax?
100

Entry under review: C#Cc1c(F)ccc2cc(O)cc(-c3ncc4c(N5CCC[C@@](C)(O)C5)nc(OC[C@H](C)CN5CCN(CC6CCC7(CC6)CCN(C(=O)c6ccc(C)c(N8CCC(=O)NC8=O)c6)CC7)CC5)nc4c3F)c12 . Reported Dmax?
100

Look up Dmax: C#Cc1c(F)ccc2cc(O)cc(-c3ncc4c(N5CCC[C@@](C)(O)C5)nc(OCC5(CN6CCN(CC7CCC8(CC7)CCN(C(=O)c7ccc(CC)c(N9CCC(=O)NC9=O)c7)CC8)CC6)CC5)nc4c3F)c12
100

Name the recorded Dmax for C#Cc1c(F)ccc2cc(O)cc(-c3ncc4c(N(C)[C@H]5C[C@@H]5F)nc(OC[C@H](C)CN5CCN(CC6CCC7(CC6)CCN(C(=O)c6ccc(OC)c(N8CCC(=O)NC8=O)c6)CC7)CC5)nc4c3F)c12 .
99.4

What measured Dmax goes with [2H]C([2H])([2H])Oc1ccc(C(=O)N2CCC3(CCC(CN4CCN(CC5(COc6nc(N7CCC[C@@](C)(O)C7)c7cnc(-c8cc(O)cc9ccc(F)c(C#C)c89)c(F)c7n6)CC5)CC4)CC3)CC2)cc1N1CCC(=O)NC1=O ?
97.7

Give its Dmax value. Item: C#Cc1c(F)ccc2cc(O)cc(-c3ccc4c(N5CCC[C@@](C)(O)C5)nc(OC[C@H](C)CN5CCN(CC6CCC7(CC6)CCN(C(=O)c6ccc(C)c(N8CCC(=O)NC8=O)c6)CC7)CC5)nc4c3F)c12
99.3

So what's the measured Dmax for this one? C#Cc1c(F)ccc2cc(O)cc(-c3ncc4c(N5CCCC(F)(F)C5)nc(OC[C@H](C)CN5CCN(CC6CCC7(CC6)CCN(C(=O)c6ccc(OC)c(N8CCC(=O)NC8=O)c6)CC7)CC5)nc4c3F)c12
93.1

# lookup: Dmax of C#Cc1c(F)ccc2cc(O)cc(-c3ncc4c(N5CCC[C@@](C)(O)C5)nc(OCC5(CN6CCN(CC7CCC8(CC7)CCN(C(=O)c7ccc(C)c(N9CCC(=O)NC9=O)c7)CC8)CC6)CC5)nc4c3F)c12
99.1

Any idea what its Dmax is? The compound is C#Cc1c(F)ccc2cc(O)cc(-c3ncc4c(N5CCC[C@@](C)(O)C5)nc(OCC5(CN6CCN(CC7CCC8(CC7)CCN(C(=O)c7ccc(Cl)c(N9CCC(=O)NC9=O)c7)CC8)CC6)CC5)nc4c3F)c12
100

Fill in the blank: the reported Dmax of C#Cc1c(F)ccc2cc(O)cc(-c3ncc4c(N5CCOCC(C)(O)C5)nc(OCC5(CN6CCN(CC7CCC8(CC7)CCN(C(=O)c7ccc(OC)c(N9CCC(=O)NC9=O)c7)CC8)CC6)CC5)nc4c3F)c12 (stereo not shown) is ____.
100

Query: Dmax; subject: C#Cc1c(F)ccc2cc(O)cc(-c3ncc4c(N5CCCC(F)(F)C5)nc(OCC5(CN6CCN(CC7CCC8(CC7)CCN(C(=O)c7ccc(OC)c(N9CCC(=O)NC9=O)c7)CC8)CC6)CC5)nc4c3F)c12
95.2

Need Dmax of C#Cc1c(F)ccc2cc(O)cc(-c3ncc4c(N5CCC[C@@](C)(O)C5)nc(OC[C@H](C)CN5CCN(CC6CCC7(CC6)CCN(C(=O)c6ccc(Cl)c(N8CCC(=O)NC8=O)c6)CC7)CC5)nc4c3F)c12 , thanks.
100
